Catalogue of sensor-assay potency score (higher = more potent) readings, one per entry.
Target: S100A4
Experiment: pooled miR-30 sensor sort-seq; sequence = guide strand; note: reference of the scale not given here
Conditions: shRNA
Answer with a bare number; do not write a unit.

Some solved entries appear below for comparison.
residueSequence	numericResult
TTACACATCATGGCGATGCAGG	-0.526
TCAGCTTCTGGAAAGCAGCTTC	0.395
TGAGCTTGAACTTGTCACCCTC	0.664
TTGTTGAGCTTGAACTTGTCAC	-0.424
TTGAACTTGTCACCCTCTTTGC	-0.681
TTGCTCAGCATCAAGCACGTGT	-0.253

Next item in the queue.
Endpoint output: sensor-assay potency score (higher = more potent) of TTTATTGAACTTGCTCAGCATC . Value?
-1.33

---

Target: TMED9
Test: pooled miR-30 sensor sort-seq; sequence = guide strand
Details: shRNA
readoutName: sensor-assay potency score (higher = more potent)

Some solved entries appear below for comparison.
residueSequence	result
TTGTCATACAGCTGCGTCCGGT	-1.2
TTGAGGTGCCGCATCTGCCAGA	-0.928
TAACACTGTGATTCTGAGGTGC	0.27
TTGGAGTGAAGACAGATCTGGT	-0.176
TTCACCTCCACAAACATGCCAA	-0.184
TGTCTTTAGCAGCAATTTCTGC	-1.06

# returns recorded sensor-assay potency score (higher = more potent) (system: TMED9) for TCAGTAACTAAGACTCTGCAGG
-0.549

# returns recorded sensor-assay potency score (higher = more potent) (system: TMED9) for TATGACCATGGTCTCGTCCGGG
-0.321

# returns recorded sensor-assay potency score (higher = more potent) (system: TMED9) for ATGACCATGGTCTCGTCCGGGA
-0.96

---

Biological target: FBXO27
Assay: pooled miR-30 sensor sort-seq; sequence = guide strand
Details: shRNA
Rule: sensor-assay potency score (higher = more potent) under -0.5 gives FALSE, otherwise TRUE.

residueSequence	subjectOfTest	categoryLabel
TCTGGTAGTTTCTAGAACCTGA	FBXO27	TRUE
TGTTGCACCATCCACTTTCGGA	FBXO27	FALSE
TTTTTTAACGTAGACTTTCAGC	FBXO27	FALSE

In plain terms: is recorded sensor-assay potency score (higher = more potent) at least -0.5 for TTATCTAGAACAGTCTGGTTGG ?
TRUE

In plain terms: is recorded sensor-assay potency score (higher = more potent) at least -0.5 for AATTTATCTAGAACAGTCTGGT ?
TRUE

---

Biological target: CYSLTR1
Assay: pooled miR-30 sensor sort-seq; sequence = guide strand
Settings: shRNA
Catalogue of sensor-assay potency score (higher = more potent) readings, one per entry.

residueSequence	result
TTGACATACAAAGCATAGGTGC	-0.753
TTAGTTTGATTGTCTTGTGGGG	0.0611
TTTCTGAATGTAGACAGCCTTT	-1.15
ATACCTACACACACAAACCTGG	-0.207

Endpoint output: sensor-assay potency score (higher = more potent) of TAGAAATGGAGAACTGGTCAAA . Value?
-0.616

Endpoint output: sensor-assay potency score (higher = more potent) of TAGAGGTTGACATACAAAGCAT . Value?
-0.639

Endpoint output: sensor-assay potency score (higher = more potent) of TTTTAGTTTGATTGTCTTGTGG . Value?
-0.438

Endpoint output: sensor-assay potency score (higher = more potent) of TTTGTGAACATAATAGACCACA . Value?
-0.314
